# Study system: VBC protein (VHL:ElonginB:ElonginC protein complex) (Homo sapiens, UniProt P40337)
# Construct: made in house
# Sequence (P40337 54-213): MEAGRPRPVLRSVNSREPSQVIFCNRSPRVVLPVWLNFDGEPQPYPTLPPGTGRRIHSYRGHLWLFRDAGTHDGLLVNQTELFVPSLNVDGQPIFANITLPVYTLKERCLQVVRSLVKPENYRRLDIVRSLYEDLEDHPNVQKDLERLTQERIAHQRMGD
# Sequence (Q15369 17-112, further chain): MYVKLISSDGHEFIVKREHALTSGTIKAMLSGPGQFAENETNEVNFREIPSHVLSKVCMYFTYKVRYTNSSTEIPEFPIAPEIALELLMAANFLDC
# Sequence (Q15370 1-104, further chain): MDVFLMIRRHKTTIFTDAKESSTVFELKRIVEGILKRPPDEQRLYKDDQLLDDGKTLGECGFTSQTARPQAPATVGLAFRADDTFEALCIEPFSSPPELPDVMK
# Format: binding
# Conditions: based on FP results, GE = ΔpKd/ΔHA (heavy atoms)
Parameter measured: GE (group efficiency)

INSERT INTO assay_data (structure, study_system, result) VALUES
  ('Cc1ncsc1-c1ccc(CNC(=O)[C@@H]2C[C@@H](O)CN2C(=O)[C@@H](NC(=O)C2CCC2)C(C)(C)C)cc1', 'VBC protein (VHL:ElonginB:ElonginC protein complex) (Homo sapiens, UniProt P40337)', '–0.07'),
  ('CC(=O)C1(C(=O)N[C@H](C(=O)N2C[C@H](O)C[C@H]2C(=O)NCc2ccc(-c3scnc3C)cc2)C(C)(C)C)CC1', 'VBC protein (VHL:ElonginB:ElonginC protein complex) (Homo sapiens, UniProt P40337)', '–0.01'),
  ('CC(=O)NC1(C(=O)N[C@H](C(=O)N2C[C@H](O)C[C@H]2C(=O)NCc2ccc(-c3scnc3C)cc2)C(C)(C)C)CC1', 'VBC protein (VHL:ElonginB:ElonginC protein complex) (Homo sapiens, UniProt P40337)', '–0.05');
